# target of assay: Solute carrier organic anion transporter family member 1B1 (Homo sapiens, UniProt Q9Y6L6)
# Sequence (Q9Y6L6 whole entry): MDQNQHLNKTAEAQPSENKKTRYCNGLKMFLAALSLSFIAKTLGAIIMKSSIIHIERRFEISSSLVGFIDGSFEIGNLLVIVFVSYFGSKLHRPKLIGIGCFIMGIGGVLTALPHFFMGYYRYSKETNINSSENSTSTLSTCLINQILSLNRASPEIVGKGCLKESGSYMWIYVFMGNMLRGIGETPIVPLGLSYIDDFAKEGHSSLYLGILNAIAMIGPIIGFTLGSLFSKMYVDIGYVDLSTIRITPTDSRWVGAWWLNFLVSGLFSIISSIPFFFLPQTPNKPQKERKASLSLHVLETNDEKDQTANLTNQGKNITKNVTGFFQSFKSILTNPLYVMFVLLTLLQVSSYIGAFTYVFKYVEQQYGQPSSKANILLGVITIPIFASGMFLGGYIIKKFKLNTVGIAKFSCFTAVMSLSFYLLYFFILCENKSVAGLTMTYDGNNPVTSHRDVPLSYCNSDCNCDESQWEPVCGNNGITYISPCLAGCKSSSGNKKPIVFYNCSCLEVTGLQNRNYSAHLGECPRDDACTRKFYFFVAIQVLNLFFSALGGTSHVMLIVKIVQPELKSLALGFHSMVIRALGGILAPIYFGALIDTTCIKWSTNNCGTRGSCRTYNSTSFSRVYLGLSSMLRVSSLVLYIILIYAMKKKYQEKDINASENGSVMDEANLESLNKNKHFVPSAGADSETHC
# experimental parameters: chinese hamster, cho, 10 µM
quantity kind: residual activity (%)
API: value field is a number in %; no unit string.

Exercise: Item: Cl.N=C(N)NC(=O)c1nc(Cl)c(N)nc1N.O.O [AMILORIDE HYDROCHLORIDE] Test system: Solute carrier organic anion transporter family member 1B1 (Homo sapiens, UniProt Q9Y6L6) Read-out: residual activity Value: ?
Key: 51.46

Exercise: For the record CNc1ccccc1C(=O)O , what value of residual activity is listed for Solute carrier organic anion transporter family member 1B1 (Homo sapiens, UniProt Q9Y6L6)?
Key: 90.95

Exercise: For the record CCCc1nc(C(C)(C)O)c(C(=O)OCc2oc(=O)oc2C)n1Cc1ccc(-c2ccccc2-c2nnn[nH]2)cc1 , what value of residual activity is listed for Solute carrier organic anion transporter family member 1B1 (Homo sapiens, UniProt Q9Y6L6)?
Key: 15.39

Exercise: Test system Solute carrier organic anion transporter family member 1B1 (Homo sapiens, UniProt Q9Y6L6); read-out residual activity; what value for C[C@@](Cc1ccc(O)c(O)c1)(NN)C(=O)O.O ?
Key: 134.5

Exercise: Request - read-out residual activity | tested on Solute carrier organic anion transporter family member 1B1 (Homo sapiens, UniProt Q9Y6L6) | molecule N#C/C(=C\c1cccc(O)c1)C(=O)O [alpha-CYANO-3-HYDROXYCINNAMIC ACID]
Key: 102.6

Exercise: Give residual activity (Solute carrier organic anion transporter family member 1B1 (Homo sapiens, UniProt Q9Y6L6)) of the following molecule: CO/N=C(\C(=O)N[C@@H]1C(=O)N2C(C(=O)[O-])=C(COC(N)=O)CS[C@H]12)c1ccco1.[Na+] [CEFUROXIME SODIUM]
Key: 64.47

Exercise: Field: residual activity (Solute carrier organic anion transporter family member 1B1 (Homo sapiens, UniProt Q9Y6L6)). Entry: CC(=O)[C@@]1(O)CC[C@H]2[C@@H]3C[C@H](C)C4=CC(=O)C=C[C@]4(C)[C@@]3(F)[C@@H](O)C[C@@]21C
Key: 85.71

Exercise: Entry C[N+]1(C)[C@@H]2C[C@@H](OC(=O)[C@H](CO)c3ccccc3)C[C@H]1[C@@H]1O[C@@H]12.[Br-] [METHSCOPOLAMINE BROMIDE] , system Solute carrier organic anion transporter family member 1B1 (Homo sapiens, UniProt Q9Y6L6): what residual activity was measured?
Key: 104.8

Exercise: Quick check: residual activity on Solute carrier organic anion transporter family member 1B1 (Homo sapiens, UniProt Q9Y6L6), item CNc1ccccc1C(=O)N1CCc2c([nH]c3ccccc23)C1=O ?
Key: 102

Exercise: Any idea what residual activity came out for C=C(C)CCC[C@@H](C)CCOC(C)=O on Solute carrier organic anion transporter family member 1B1 (Homo sapiens, UniProt Q9Y6L6)?
Key: 104.4

Exercise: # get_value(readout= residual activity, system= Solute carrier organic anion transporter family member 1B1 (Homo sapiens, UniProt Q9Y6L6)) for CC(=O)OCC(=O)[C@@]12OC3(CCCC3)O[C@@H]1C[C@H]1[C@@H]3CCC4=CC(=O)C=C[C@]4(C)[C@@]3(F)[C@@H](O)C[C@@]12C [AMCINONIDE]
Key: 35.76

Exercise: State its residual activity on Solute carrier organic anion transporter family member 1B1 (Homo sapiens, UniProt Q9Y6L6): CC(=O)O[C@@H]1CC[C@]2(C)[C@H](C[C@@H](OC(C)=O)[C@]3(C)C4=CC(=O)O[C@H](c5ccoc5)[C@@]4(C)CC[C@@H]23)C1(C)C
Key: 18.95

Exercise: For the record CC(C)(C)NC[C@H](O)COc1nsnc1N1CCOCC1.O=C(O)/C=C\C(=O)O [TIMOLOL MALEATE] , what value of residual activity is listed for Solute carrier organic anion transporter family member 1B1 (Homo sapiens, UniProt Q9Y6L6)?
Key: 113.3

Exercise: Form field: residual activity recorded for CC1(C)Oc2ccc3ccc(=O)oc3c2CC1O (centres undefined) with Solute carrier organic anion transporter family member 1B1 (Homo sapiens, UniProt Q9Y6L6) (enter value)
Key: 92.91

Exercise: residual activity of Cc1scc2c1N(C(=O)CN1CCN(C)CC1)c1ccccc1NC2=O.Cl [TELENZEPINE HYDROCHLORIDE] on Solute carrier organic anion transporter family member 1B1 (Homo sapiens, UniProt Q9Y6L6)?
Key: 99.27

Exercise: Find the measured residual activity: item COC(=O)C(N)CS.Cl (centres undefined) [MECYSTEINE HYDROCHLORIDE] , target or system Solute carrier organic anion transporter family member 1B1 (Homo sapiens, UniProt Q9Y6L6).
Key: 97.76

Exercise: Lab note: need residual activity with Solute carrier organic anion transporter family member 1B1 (Homo sapiens, UniProt Q9Y6L6) for entry CCOC(=O)c1c(C)cc(OC)cc1O [ETHYL EVERNINATE] , please look it up.
Key: 111.1

Exercise: Notebook: pull reported residual activity for Solute carrier organic anion transporter family member 1B1 (Homo sapiens, UniProt Q9Y6L6), entry COc1ccc(C(C)=O)c(OC)c1
Key: 105.9

Exercise: Enter reported residual activity observed with Solute carrier organic anion transporter family member 1B1 (Homo sapiens, UniProt Q9Y6L6) for COc1cc(Cc2cnc(N)nc2N)cc(OC)c1OC
Key: 82.92

Exercise: Form: Entry = Nc1ncnc2c1ncn2[C@H]1C[C@H](O)[C@@H](CO)O1 | System = Solute carrier organic anion transporter family member 1B1 (Homo sapiens, UniProt Q9Y6L6) | residual activity = ____
Key: 112.3

Exercise: Give the reported residual activity for CNC(C)C(O)c1ccccc1.Cl (centres undefined) [RACEPHEDRINE HYDROCHLORIDE] (system: Solute carrier organic anion transporter family member 1B1 (Homo sapiens, UniProt Q9Y6L6)).
Key: 70.72

Exercise: Tell me reported residual activity for COc1c(O)cc2c(-c3ccccc3)cc(=O)oc2c1OC , tested with Solute carrier organic anion transporter family member 1B1 (Homo sapiens, UniProt Q9Y6L6).
Key: 128.2

Exercise: API: value(readout=residual activity, system=Solute carrier organic anion transporter family member 1B1 (Homo sapiens, UniProt Q9Y6L6)) for record CCOc1ccc(C(=O)c2ccc(OC)c(O)c2O)cc1
Key: 172.8

Exercise: Please state recorded residual activity (tested on Solute carrier organic anion transporter family member 1B1 (Homo sapiens, UniProt Q9Y6L6)) of NC(=O)c1ccc(N)nc1 [6-AMINONICOTINAMIDE]
Key: 103.2

Exercise: Report residual activity for CCCN(CCC)C(=O)C(CCC(=O)O)NC(=O)c1ccccc1 (centres undefined) [PROGLUMIDE] tested on Solute carrier organic anion transporter family member 1B1 (Homo sapiens, UniProt Q9Y6L6).
Key: 105

Exercise: Entry Nc1c2c(nc3ccccc13)CCCC2O.O=C(O)/C=C\C(=O)O (centres undefined) [VELNACRINE MALEATE] , system Solute carrier organic anion transporter family member 1B1 (Homo sapiens, UniProt Q9Y6L6): what residual activity was measured?
Key: 103.3

Exercise: Query the reported residual activity for Solute carrier organic anion transporter family member 1B1 (Homo sapiens, UniProt Q9Y6L6); item: C[C@@H]1O[C@@H](O[C@H]2[C@H](Oc3cc(O)c4c(=O)cc(-c5ccc(O)cc5)oc4c3)O[C@H](CO)[C@@H](O)[C@@H]2O)[C@H](O)[C@H](O)[C@H]1O
Key: 101.7

Exercise: Write down the reported residual activity of CO/N=C(\C(=O)N[C@@H]1C(=O)N2C(C(=O)[O-])=C(COC(C)=O)CS[C@H]12)c1csc(N)n1.[Na+] [CEFOTAXIME SODIUM] , test system: Solute carrier organic anion transporter family member 1B1 (Homo sapiens, UniProt Q9Y6L6).
Key: 104.1

Exercise: Enter reported residual activity observed with Solute carrier organic anion transporter family member 1B1 (Homo sapiens, UniProt Q9Y6L6) for COc1c2ccoc2cc2oc(C)cc(=O)c12
Key: 127.2

Exercise: Please provide the recorded residual activity for Oc1c(I)cc(I)c2cccnc12 , tested on Solute carrier organic anion transporter family member 1B1 (Homo sapiens, UniProt Q9Y6L6).
Key: 86.7

Exercise: Request - read-out residual activity | tested on Solute carrier organic anion transporter family member 1B1 (Homo sapiens, UniProt Q9Y6L6) | molecule CSCC[C@H](NC=O)C(=O)N[C@@H](CC(C)C)C(=O)N[C@@H](Cc1ccccc1)C(=O)O
Key: 76.72

Exercise: Could you share what residual activity was measured for COc1ccc2ccc(=O)oc2c1 , tested on Solute carrier organic anion transporter family member 1B1 (Homo sapiens, UniProt Q9Y6L6)?
Key: 148.3

Exercise: # returns recorded residual activity (system: Solute carrier organic anion transporter family member 1B1 (Homo sapiens, UniProt Q9Y6L6)) for COC(=O)[C@H]1[C@H]2C[C@H]3c4[nH]c5cc(OC)ccc5c4CCN3C[C@H]2C[C@@H](OC(=O)c2cc(OC)c(OC)c(OC)c2)[C@@H]1OC
Key: 38.5

Exercise: Solute carrier organic anion transporter family member 1B1 (Homo sapiens, UniProt Q9Y6L6) / residual activity / CCC(Cc1c(I)cc(I)c(N)c1I)C(=O)O (centres undefined) : value?
Key: 31.11
